target_desc: α-amylase
test_protocol: α-amylase inhibitory activity, spectrophotometric starch/Lugol method
applied_conditions: mean ± SEM of three parallel measurements; concentration range 50–100–200–400 μM; read-out: antidiabetic inhibition activity IC50 α-amylase
Experimental: Briefly, 25 μL of the sample solution at various concentrations was mixed with 50 μL of an α-amylase solution (0.1 U/mL) in a phosphate buffer (20 mM, pH 6.9, prepared with 6 mM NaCl) in a 96-well microplate. This mixture was preincubated at 37 °C for 10 min. Following the preincubation, 50 μL of a starch solution (0.05%) was added, and the reaction mixture was incubated for another 10 min at 37 °C. […]
recorded_endpoint: IC50 (µM)
Write down the numeric answer in µM and omit the unit.

These recorded examples may help you get a feel for the data.
given_smiles	target_desc	unit_abbreviation	IC50
O=C(/C=C/c1ccc(F)c(C(F)(F)F)c1)c1ccc(N2CCCC2)cc1	α-amylase	µM	83.8
O=C(/C=C/c1cc(C(F)(F)F)cc(C(F)(F)F)c1)c1ccc(N2CCCC2)cc1	α-amylase	µM	39.7

Read off the recorded IC50 for "O=C(/C=C/c1ccc(F)cc1)c1ccc(N2CCCC2)cc1"
30.6

Read off the recorded IC50 for "O=C(/C=C/c1ccc(C(F)(F)F)cc1F)c1ccc(N2CCCC2)cc1"
80.1

Read off the recorded IC50 for "O=C(/C=C/c1ccccc1F)c1ccc(N2CCCC2)cc1"
52

Read off the recorded IC50 for "O=C(/C=C/c1cccc(C(F)(F)F)c1)c1ccc(N2CCCC2)cc1"
83.8

Read off the recorded IC50 for "O=C(/C=C/c1ccc(C(F)(F)F)cc1)c1ccc(N2CCCC2)cc1"
38.2

Read off the recorded IC50 for "O=C(/C=C/c1ccccc1C(F)(F)F)c1ccc(N2CCCC2)cc1"
91.7

Read off the recorded IC50 for "O=C(/C=C/c1ccc(OC(F)(F)F)cc1)c1ccc(N2CCCC2)cc1"
40
